# Ranking, Cytotoxicity (%) values compiled below
- System: Caki-1 cells
- assay method text: LDH cytotoxicity assay of Caki-1
- Assay type: cell-based, Human
- experimental context: top five target drugs, LDH assay, 10 μM, 1 day; rank 1 = highest cytotoxicity
The reply should be a number, written without any unit.

Some compounds with recorded Ranking, Cytotoxicity (%):
| compound | test result |
| --- | --- |
| Cc1cnc(Nc2ccc(C(=O)Nc3cccc(S(=O)(=O)NC(C)(C)C)c3)cc2)nc1Nc1cccc(S(=O)(=O)NC(C)(C)C)c1 [M101D] | 1 |
| Cc1ccc(Nc2ncc(C)c(Nc3cccc(S(=O)(=O)NC(C)(C)C)c3)n2)cc1S(N)(=O)=O [M66] | 4 |
| Cc1cnc(Nc2ccc(C(=O)Nc3cccc(Br)c3)cc2)nc1Nc1cccc(S(=O)(=O)NC(C)(C)C)c1 [M101B] | 3 |

Give a short answer stating reported Ranking, Cytotoxicity (%) for COc1cc(NC(=O)c2ccc(Nc3ncc(C)c(Nc4cccc(S(=O)(=O)NC(C)(C)C)c4)n3)cc2)cc(OC)c1 [M101A] .
5

Give a short answer stating reported Ranking, Cytotoxicity (%) for Cc1cnc(Nc2ccc(N3CCN(C)CC3)cc2)nc1Nc1cccc(S(=O)(=O)NC2CCC2)c1 [M5] .
2

---

- System: Caki-1 cells
- assay method text: MTT cell viability assay of Caki-1 treated with TG-101209 and its alternatives
- Assay type: cell-based, Human
- experimental context: top five target drugs, MTT assay, 10 μM, 1 day; rank 1 = greatest reduction
measurement kind: Ranking, Cell viability (%)
The reply should be a number, written without any unit.

| molecule | tgt | Ranking, Cell viability (%) |
| --- | --- | --- |
| Cc1cnc(Nc2ccc(N3CCN(C)CC3)cc2)nc1Nc1cccc(S(=O)(=O)NC2CCC2)c1 | Caki-1 cells | 1 |

# evaluate next
Give a short answer stating reported Ranking, Cell viability (%) for COc1cc(NC(=O)c2ccc(Nc3ncc(C)c(Nc4cccc(S(=O)(=O)NC(C)(C)C)c4)n3)cc2)cc(OC)c1 [M101A] .
4

---

- Test system: Caki-1 cells
- assay method text: MTT cell viability assay of Caki-1 treated with TG-101209 and its alternatives
- Type: cell-based, Human
- experimental context: top five target drugs, MTT assay, 10 μM, 1 day; rank 1 = greatest reduction
# Ranking, Cell viability (%) values compiled below
The reply should be a number, written without any unit.

Some compounds with recorded Ranking, Cell viability (%):
| compound | test result |
| --- | --- |
| Cc1cnc(Nc2ccc(N3CCN(C)CC3)cc2)nc1Nc1cccc(S(=O)(=O)NC(C)(C)C)c1 [TG-101209, reference compound] | 5 |
| Cc1cnc(Nc2ccc(C(=O)Nc3cccc(S(=O)(=O)NC(C)(C)C)c3)cc2)nc1Nc1cccc(S(=O)(=O)NC(C)(C)C)c1 [M101D] | 2 |

# evaluate next
With Caki-1 cells as the test system, provide measured Ranking, Cell viability (%) for this compound: `Cc1ccc(Nc2ncc(C)c(Nc3cccc(S(=O)(=O)NC(C)(C)C)c3)n2)cc1S(N)(=O)=O`
3

Recorded values, source patent US20250188041A1.
